The measurements presented in this section are drawn from the supplement of paper PMC9112550.

System: Escherichia coli TOP10
method description: shrunken log2 fold change of peptide-encoding DNA abundance (4.5 h post-induction vs induction); higher = less antimicrobial activity (less host growth inhibition)
condition summary: time post-induction: 4.5 h; library: site-saturation at positions 5, 18, 19, 20
Let's look at some sequences and their measured shrunken log2 fold change.
I only need the number, thanks.

// `RRIRRRPPRLPRPRPRPWMIPRP` : shrunken log2 fold change value = -0.26

For record `RRIRERPPRLPRPRPRPHSKPRP` the listed shrunken log2 fold change is -0.313

----------
Tested on: Escherichia coli TOP10;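 further: peptides expressed intracellularly from a pBAD plasmid library in pooled LB shake-flask culture, induced with 0.3% L-arabinose, DNA abundance read by NGS, three biological replicates, DESeq2 with apeglm shrinkage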
method description: shrunken log2 fold change of peptide-encoding DNA abundance (4.5 h post-induction vs induction); higher = less antimicrobial activity (less host growth inhibition)
condition summary: time post-induction: 4.5 h; library: site-saturation at positions 5, 18, 19, 20
endpoint name: shrunken log2 fold change
Output: the number by itself.

// solved cases for shrunken log2 fold change follow
RRIRGRPPRLPRPRPRPCNDPRP: 0.376
RRIRSRPPRLPRPRPRPCSQPRP: -0.214
RRIRDRPPRLPRPRPRPLIPPRP: -0.516
RRIRKRPPRLPRPRPRPFDAPRP: 0.337
RRIRQRPPRLPRPRPRPKMMPRP: -0.082

The sequence identified as `RRIRDRPPRLPRPRPRPTMIPRP` registered its shrunken log2 fold change at -0.587

Record `RRIRDRPPRLPRPRPRPIVGPRP` . Reported shrunken log2 fold change: 0.145

Looking up `RRIRTRPPRLPRPRPRPQMYPRP` , I found its shrunken log2 fold change recorded as -0.148

shrunken log2 fold change in this record for `RRIRARPPRLPRPRPRPGIHPRP` : 0.37
